tgt: 5-hydroxytryptamine receptor 2A (Homo sapiens, UniProt P28223)
Sequence (P28223 whole entry): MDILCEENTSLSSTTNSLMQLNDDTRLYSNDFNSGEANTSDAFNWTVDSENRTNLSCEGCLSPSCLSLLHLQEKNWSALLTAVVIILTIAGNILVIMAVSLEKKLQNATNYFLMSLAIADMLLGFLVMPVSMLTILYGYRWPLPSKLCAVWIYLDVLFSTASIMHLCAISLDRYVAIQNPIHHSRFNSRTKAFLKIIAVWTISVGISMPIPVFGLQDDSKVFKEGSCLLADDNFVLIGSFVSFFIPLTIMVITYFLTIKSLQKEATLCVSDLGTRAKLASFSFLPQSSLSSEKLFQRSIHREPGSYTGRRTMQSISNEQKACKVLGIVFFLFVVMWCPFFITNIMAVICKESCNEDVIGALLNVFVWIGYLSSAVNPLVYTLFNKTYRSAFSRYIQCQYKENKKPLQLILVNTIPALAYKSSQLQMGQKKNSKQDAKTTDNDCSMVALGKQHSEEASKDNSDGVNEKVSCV
Assay type: functional, cell-based

molecule	AC50
Cc1c(Cl)cccc1Nc1ccccc1C(=O)O	> 30 µM
CN1CCN(C(=O)OC2c3nccnc3C(=O)N2c2ccc(Cl)cn2)CC1 (stereo not drawn)	> 30 µM
CO/N=C(\C(=O)N[C@@H]1C(=O)N2C(C(=O)[O-])=C(C[N+]3(C)CCCC3)CS[C@H]12)c1csc(N)n1	> 300 µM
C=C1C[C@@H]2[C@H](CC[C@]3(C)C(=O)CC[C@@H]23)[C@@]2(C)C=CC(=O)C=C12	> 30 µM
CCCC(=O)N1CCCN(c2nc(N)c3cc(OC)c(OC)cc3n2)CC1	> 30 µM
CCCCOc1cc(C(=O)NCCN(CC)CC)c2ccccc2n1	> 10 µM
CC(=O)c1ccc2c(c1)N(CCCN1CCN(CCO)CC1)c1ccccc1S2	> 30 µM
O=C(CCCCC(=O)Nc1c(I)cc(I)c(C(=O)O)c1I)Nc1c(I)cc(I)c(C(=O)O)c1I [IODIPAMIDE]	> 10 µM

====

Record set of AC50 for target or system Neuronal acetylcholine receptor subunit alpha-4 (Homo sapiens). Further: assay procedure not described here.

compound	AC50
COC(=O)C1=C(C)NC(C)=C(C(=O)OCC(C)C)C1c1ccccc1[N+](=O)[O-] (stereo not drawn)	> 10 µM
Cc1ccc(-c2nc3ccc(C)cn3c2CC(=O)N(C)C)cc1	> 30 µM
CN(C/C=C/c1ccccc1)Cc1cccc2ccccc12	> 10 µM
CC(=O)N(CC(O)CO)c1c(I)c(C(=O)NCC(O)CO)c(I)c(C(=O)NCC(O)CO)c1I (stereo not drawn) [IOHEXOL]	> 10 µM
COc1cc(Nc2c(C#N)cnc3cc(OCCCN4CCN(C)CC4)c(OC)cc23)c(Cl)cc1Cl	> 10 µM
COc1ccc2c(c1)c(CC(=O)OCC(=O)O)c(C)n2C(=O)c1ccc(Cl)cc1	> 30 µM
CC(C)NCC1CCc2cc(CO)c([N+](=O)[O-])cc2N1 (stereo not drawn)	> 10 µM
Cc1nc2ccc(CN(C)c3ccc(C(=O)N[C@@H](CCC(=O)O)C(=O)O)s3)cc2c(=O)[nH]1	> 30 µM

====

We begin with a simple list: items and their reported AC50.
tgt: Sodium-dependent noradrenaline transporter (Homo sapiens)
Sequence (P23975 whole entry): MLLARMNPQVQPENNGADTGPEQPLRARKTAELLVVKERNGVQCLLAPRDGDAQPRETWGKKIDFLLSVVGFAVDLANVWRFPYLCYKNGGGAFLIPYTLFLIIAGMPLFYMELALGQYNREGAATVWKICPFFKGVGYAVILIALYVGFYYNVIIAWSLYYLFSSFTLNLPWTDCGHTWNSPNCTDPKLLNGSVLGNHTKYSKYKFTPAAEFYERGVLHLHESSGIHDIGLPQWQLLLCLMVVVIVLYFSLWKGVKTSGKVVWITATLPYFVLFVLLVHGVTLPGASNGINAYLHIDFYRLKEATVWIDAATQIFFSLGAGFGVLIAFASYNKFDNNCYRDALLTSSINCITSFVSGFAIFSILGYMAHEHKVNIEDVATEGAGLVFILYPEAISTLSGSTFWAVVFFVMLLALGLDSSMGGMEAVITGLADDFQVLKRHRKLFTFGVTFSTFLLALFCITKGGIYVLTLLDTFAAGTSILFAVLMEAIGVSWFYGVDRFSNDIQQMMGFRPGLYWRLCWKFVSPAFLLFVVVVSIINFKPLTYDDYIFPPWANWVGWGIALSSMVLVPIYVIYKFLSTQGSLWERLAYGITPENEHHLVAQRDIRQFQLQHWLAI

molecule	AC50 (µM)
O=C1[C@H](CC[C@H](O)c2ccc(F)cc2)[C@@H](c2ccc(O)cc2)N1c1ccc(F)cc1	24
Cc1c(O)cccc1C(=O)N[C@@H](CSc1ccccc1)[C@H](O)CN1C[C@H]2CCCC[C@H]2C[C@H]1C(=O)NC(C)(C)C	18.2
CCC(=O)O[C@H]1[C@H](O[C@@H]2[C@@H](C)[C@H](O[C@H]3C[C@@](C)(OC)[C@@H](O)[C@H](C)O3)[C@@H](C)C(=O)O[C@H](CC)[C@@](C)(O)[C@H](O)[C@@H](C)C(=O)[C@H](C)C[C@@]2(C)O)O[C@H](C)C[C@@H]1N(C)C [ERYTHROMYCIN PROPIONATE]	29.9
CN1CCCC(CN2c3ccccc3Sc3ccccc32)C1 (configuration not stated)	2.38

====

Entries with their measured AC50, system Estrogen receptor (Homo sapiens, UniProt P03372):

molecule	AC50
CC(=O)O[C@@]12CO[C@@H]1C[C@H](O)[C@@]1(C)C(=O)[C@H](O)C3=C(C)[C@@H](OC(=O)[C@H](O)[C@@H](NC(=O)OC(C)(C)C)c4ccccc4)C[C@@](O)([C@@H](OC(=O)c4ccccc4)[C@H]21)C3(C)C [DOCETAXEL ANHYDROUS]	> 30 µM
COC(=O)[C@@H]1CC2=CC(=O)CC[C@]2(C)[C@@]23O[C@@H]2C[C@@]2(C)[C@@H](CC[C@@]24CCC(=O)O4)[C@H]13	> 30 µM
Cc1cccc(C)c1OCC(C)N (stereo not drawn)	> 30 µM

====

Neuronal acetylcholine receptor subunit alpha-4 (Homo sapiens) data, read-out AC50; further: assay procedure not described here
Sequence (P43681 whole entry): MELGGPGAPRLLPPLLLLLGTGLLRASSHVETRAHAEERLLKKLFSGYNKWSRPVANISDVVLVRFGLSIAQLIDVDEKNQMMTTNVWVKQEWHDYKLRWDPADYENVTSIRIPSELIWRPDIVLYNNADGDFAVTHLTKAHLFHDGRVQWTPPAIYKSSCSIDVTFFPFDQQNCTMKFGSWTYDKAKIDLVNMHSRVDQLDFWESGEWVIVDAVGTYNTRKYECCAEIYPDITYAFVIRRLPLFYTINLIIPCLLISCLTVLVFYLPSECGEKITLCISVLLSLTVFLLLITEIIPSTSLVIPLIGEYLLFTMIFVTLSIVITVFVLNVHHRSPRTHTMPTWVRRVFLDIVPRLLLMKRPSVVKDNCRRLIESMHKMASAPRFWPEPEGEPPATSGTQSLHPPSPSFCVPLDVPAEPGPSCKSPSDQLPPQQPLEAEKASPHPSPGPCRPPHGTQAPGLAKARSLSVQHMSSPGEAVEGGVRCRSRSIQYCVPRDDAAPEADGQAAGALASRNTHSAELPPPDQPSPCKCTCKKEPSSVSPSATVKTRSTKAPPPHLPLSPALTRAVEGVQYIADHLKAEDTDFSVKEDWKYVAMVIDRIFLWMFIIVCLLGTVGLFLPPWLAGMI

molecule	AC50
O=C(O)CCCc1ccccc1	> 10 µM
O=C1NCCN1CCN1CCC(c2cn(-c3ccc(F)cc3)c3ccc(Cl)cc23)CC1	17 µM
CN[C@@H]1[C@H](O)[C@H](NC)[C@H]2O[C@@]3(O)C(=O)C[C@@H](C)O[C@H]3O[C@@H]2[C@H]1O	> 10 µM
CCNC(C)Cc1cccc(C(F)(F)F)c1 (stereo not given)	> 10 µM
CC(C(O)c1ccc(O)cc1)N1CCC(Cc2ccccc2)CC1 (stereo not given)	> 30 µM

====

tgt: 5-hydroxytryptamine receptor 1A (Homo sapiens)
Sequence (P08908 whole entry): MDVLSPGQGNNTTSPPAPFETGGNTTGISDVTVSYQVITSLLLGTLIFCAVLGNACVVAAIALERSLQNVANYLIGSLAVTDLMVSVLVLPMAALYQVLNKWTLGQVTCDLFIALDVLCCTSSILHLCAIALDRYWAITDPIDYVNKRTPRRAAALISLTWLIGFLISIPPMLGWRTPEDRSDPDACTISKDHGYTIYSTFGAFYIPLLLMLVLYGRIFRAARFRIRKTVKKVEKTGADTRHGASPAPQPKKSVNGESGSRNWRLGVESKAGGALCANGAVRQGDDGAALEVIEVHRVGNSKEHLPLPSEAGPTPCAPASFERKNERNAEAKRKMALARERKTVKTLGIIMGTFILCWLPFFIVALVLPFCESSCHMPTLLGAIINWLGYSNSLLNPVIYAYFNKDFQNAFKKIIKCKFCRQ
Assay type: functional, cell-based
recorded.metric: AC50

compound	test.value
Nc1nc(N)c2nc(-c3ccccc3)c(N)nc2n1	> 10 µM
O=C(CCCCC(=O)Nc1c(I)cc(I)c(C(=O)O)c1I)Nc1c(I)cc(I)c(C(=O)O)c1I [IODIPAMIDE]	> 10 µM
NC(N)=Nc1nc(CSCCC(N)=NS(N)(=O)=O)cs1	> 10 µM
CN1C(=O)CC(=O)N(c2ccccc2)c2cc(Cl)ccc21	> 10 µM
C[C@@H]1O[C@@H]1P(=O)(O)O	> 10 µM
N[C@@H](CSCC(=O)O)C(=O)O	> 30 µM
O=C(Nc1ccccc1)OCC(CN1CCCCC1)OC(=O)Nc1ccccc1 (configuration not stated)	> 10 µM
CC(C)NNC(=O)c1ccncc1	> 30 µM
COC(=O)[C@@H]1CC2=CC(=O)CC[C@]2(C)[C@@]23O[C@@H]2C[C@@]2(C)[C@@H](CC[C@@]24CCC(=O)O4)[C@H]13	> 30 µM
COC(=O)C1=C(C)NC(C)=C(C(=O)OC(C)C)C1c1cccc2nonc12 (configuration not stated)	> 10 µM
CCCCN1CCCCC1C(=O)Nc1c(C)cccc1C (configuration not stated)	> 30 µM
CN(CCOc1ccc(NS(C)(=O)=O)cc1)CCc1ccc(NS(C)(=O)=O)cc1 [DOFETILIDE]	> 10 µM
Cc1c(Cl)cccc1Nc1ccccc1C(=O)O	22 µM
O=P(O)(O)C(O)(Cc1cccnc1)P(=O)(O)O	> 10 µM
Cc1c(O)c(=O)ccn1C	> 30 µM
CC(C)NCC1CCc2cc(CO)c([N+](=O)[O-])cc2N1 (configuration not stated)	> 30 µM
COC(=O)N[C@H](C(=O)N[C@@H](Cc1ccccc1)[C@@H](O)CN(Cc1ccc(-c2ccccn2)cc1)NC(=O)[C@@H](NC(=O)OC)C(C)(C)C)C(C)(C)C	> 10 µM
Cc1ccc(C(=O)c2cc(O)c(O)c([N+](=O)[O-])c2)cc1	5.6 µM
CCC(C(=O)O)c1ccc(CC(C)C)cc1 (configuration not stated)	> 30 µM
COc1c(N2CCNC(C)C2)c(F)cc2c(=O)c(C(=O)O)cn(C3CC3)c12 (configuration not stated)	> 10 µM
CCCCCOC(=O)Nc1nc(=O)n([C@@H]2O[C@H](C)[C@@H](O)[C@H]2O)cc1F	> 30 µM
NS(=O)(=O)c1cc2c(cc1Cl)NC(CC1CCCC1)NS2(=O)=O (configuration not stated) [CYCLOPENTHIAZIDE]	> 30 µM
CN(C)[C@@H]1C(O)=C(C(N)=O)C(=O)[C@@]2(O)C(O)=C3C(=O)c4c(O)ccc(Cl)c4[C@@H](O)[C@H]3C[C@@H]12	> 10 µM
CCCCCCC(C)(C)c1cc(O)c2c(c1)OC(C)(C)C1CCC(=O)CC21 (configuration not stated)	> 30 µM
NC(=O)C[S+]([O-])C(c1ccccc1)c1ccccc1 (configuration not stated)	> 10 µM
CCc1ccc(CCOc2ccc(CC3SC(=O)NC3=O)cc2)nc1 (configuration not stated)	> 10 µM
O=C(CCCCCCC(=O)Nc1ccccc1)NO	> 30 µM
Cc1cc2c(OCC(CNC(C)(C)C)OC(=O)c3ccccc3)cccc2[nH]1 (configuration not stated)	0.028 µM
C=C1C[C@@H]2[C@H](CC[C@]3(C)C(=O)CC[C@@H]23)[C@@]2(C)C=CC(=O)C=C12	> 10 µM
NS(=O)(=O)c1cc2c(cc1Cl)NCNS2(=O)=O [HYDROCHLOROTHIAZIDE]	> 10 µM
CCCCC(C)(O)C/C=C/[C@H]1[C@H](O)CC(=O)[C@@H]1CCCCCCC(=O)OC (some centres not stated)	> 30 µM
COc1ccc2cccc(CCNC(C)=O)c2c1	> 10 µM
CCOC(=O)[C@H](CCc1ccccc1)N[C@@H](C)C(=O)N1CCC[C@H]1C(=O)O	> 10 µM
NC(CO)C(=O)NNCc1ccc(O)c(O)c1O (configuration not stated) [BENSERAZIDE]	> 10 µM
CCCCCN(C)CCC(O)(P(=O)(O)O)P(=O)(O)O	> 10 µM
CN1C(=O)CC(C)(c2ccccc2)C1=O (configuration not stated) [METHSUXIMIDE]	> 10 µM
Cc1ccc(-c2nc3ccc(C)cn3c2CC(=O)N(C)C)cc1	> 10 µM
